System: MDA-MB-468 breast
assay-remarks: NCI tumour cell line growth inhibition, 48 h
// TGI lookup, one value per entry
endpoint-name: TGI (µM)

molecule	endpoint-name	cmp	recorded-number
O=C(N/N=C/c1ccccc1O)c1ccccc1	TGI	>	100
CCCCn1c(-c2ccc(C(=O)O/N=C(\N)c3ccc4c(c3)OCO4)cc2)nc(-c2ccccc2)c1-c1ccccc1	TGI	>	100
c1ccc2[nH]c(-c3ccc(Nc4nc(N5CCCCC5)nc(N5CCOCC5)n4)cc3)nc2c1	TGI	=	6.51
C/C(=N\NC(=S)Nc1ccc(Br)cc1)c1cc2ccccc2oc1=O	TGI	=	5.82
O=C1NC(=O)c2c1c1c3ccccc3ccc1c1[nH]c3ccccc3c21	TGI	=	8.87
O=C(O)[C@@H](Cc1ccc2ccccc2c1)NC(=O)n1c2ccccc2c2ccccc21	TGI	=	7.17
O=C1OCC2=C1C(c1ccccc1)c1cc3c(cc1N2CCO)OCO3 (configuration not stated)	TGI	=	4.61
